Catalogue of log10 of IC50 readings, one per entry.
tested on: A549; test: Cytotoxicity against human A549 cells assessed as growth inhibition after 48 hrs by MTT assay; assay type: functional, cell-based
REPORTED METRIC: log10 of IC50 (log10 of the value in µM)

CHEMICAL STRUCTURE: OC[C@H]1O[C@@H](n2cc(C(c3ccc(Cl)cc3)c3cn([C@@H]4O[C@H](CO)[C@@H](O)[C@H](O)[C@H]4O)c4ccc(Br)cc34)c3cc(Br)ccc32)[C@H](O)[C@@H](O)[C@@H]1O
log10 of IC50: 0.43
//
CHEMICAL STRUCTURE: COc1cccc(C(c2c[nH]c3ccc(Br)cc23)c2c[nH]c3ccc(Br)cc23)c1OC
log10 of IC50: 2.00
//
CHEMICAL STRUCTURE: COc1ccc(C(c2c[nH]c3ccc(Br)cc23)c2c[nH]c3ccc(Br)cc23)cc1OC
log10 of IC50: 1.08
//
CHEMICAL STRUCTURE: CCCCCCCC(c1cn([C@@H]2O[C@H](CO)[C@@H](O)[C@H](O)[C@H]2O)c2ccc(Br)cc12)c1cn([C@@H]2O[C@H](CO)[C@@H](O)[C@H](O)[C@H]2O)c2ccc(Br)cc12
log10 of IC50: 0.11
//
CHEMICAL STRUCTURE: Brc1ccc2[nH]cc(C(c3c[nH]c4ccc(Br)cc34)C3CCCCC3)c2c1
log10 of IC50: 0.74

###

system: HeLa; assay: Cytotoxicity against human HeLa cells assessed as inhibition of colony formation at 0.1 to 1 umol after 5 days by crystal violet staining assay; format: functional, cell-based
The source made the active and inactive calls. The calls are words filed in the database; no cut-off is given here.

CHEMICAL STRUCTURE: CCCCCCCC(c1c[nH]c2ccc(Br)cc12)c1c[nH]c2ccc(Br)cc12
inhibition: Active

CHEMICAL STRUCTURE: Brc1ccc(C(c2c[nH]c3ccc(Br)cc23)c2c[nH]c3ccc(Br)cc23)cc1
inhibition: Active

CHEMICAL STRUCTURE: CCCCCCCC(c1cn([C@@H]2O[C@H](CO)[C@@H](O)[C@H](O)[C@H]2O)c2ccc(Br)cc12)c1cn([C@@H]2O[C@H](CO)[C@@H](O)[C@H](O)[C@H]2O)c2ccc(Br)cc12
inhibition: Active

CHEMICAL STRUCTURE: O=[N+]([O-])c1ccc(C(c2c[nH]c3ccc(Br)cc23)c2c[nH]c3ccc(Br)cc23)cc1
inhibition: Active

CHEMICAL STRUCTURE: Clc1ccc(C(c2c[nH]c3ccc(Br)cc23)c2c[nH]c3ccc(Br)cc23)cc1
inhibition: Active

###

test system: A549; experiment: Cytotoxicity against human A549 cells assessed as growth inhibition after 48 hrs by MTT assay; format: functional, cell-based
REPORTED METRIC: IC50 (µM)

CHEMICAL STRUCTURE: O=[N+]([O-])c1ccc(C(c2c[nH]c3ccc(Br)cc23)c2c[nH]c3ccc(Br)cc23)cc1
QUALIFIER: =
ASSAY RESULT: 5.5
--
CHEMICAL STRUCTURE: Brc1ccc(C(c2c[nH]c3ccc(Br)cc23)c2c[nH]c3ccc(Br)cc23)cc1
QUALIFIER: =
ASSAY RESULT: 5.6
--
CHEMICAL STRUCTURE: N#Cc1ccc2[nH]cc(C(c3ccc(Br)cc3)c3c[nH]c4ccc(C#N)cc34)c2c1
QUALIFIER: >
ASSAY RESULT: 100
--
CHEMICAL STRUCTURE: COc1ccc(C(c2c[nH]c3ccc(Br)cc23)c2c[nH]c3ccc(Br)cc23)c(OC)c1
QUALIFIER: =
ASSAY RESULT: 100
--
CHEMICAL STRUCTURE: CC(c1ccccc1)(c1c[nH]c2ccccc12)c1c[nH]c2ccccc12
QUALIFIER: =
ASSAY RESULT: 8.5
--
CHEMICAL STRUCTURE: c1ccc(C(c2c[nH]c3ccccc23)c2c[nH]c3ccccc23)cc1
QUALIFIER: =
ASSAY RESULT: 40
--
CHEMICAL STRUCTURE: COc1ccc(C(c2c[nH]c3ccc(Br)cc23)c2c[nH]c3ccc(Br)cc23)cc1
QUALIFIER: =
ASSAY RESULT: 10
--
CHEMICAL STRUCTURE: CCCC(c1c[nH]c2ccc(Br)cc12)c1c[nH]c2ccc(Br)cc12
QUALIFIER: =
ASSAY RESULT: 6.5
--
CHEMICAL STRUCTURE: O=[N+]([O-])c1ccc2[nH]cc(C(c3ccc(Br)cc3)c3c[nH]c4ccc([N+](=O)[O-])cc34)c2c1
QUALIFIER: >
ASSAY RESULT: 100
--
CHEMICAL STRUCTURE: N#Cc1ccc2[nH]cc(C(c3ccc([N+](=O)[O-])cc3)c3c[nH]c4ccc(C#N)cc34)c2c1
QUALIFIER: >
ASSAY RESULT: 100
--
CHEMICAL STRUCTURE: CC(=O)OC[C@H]1O[C@@H](n2cc(C(c3ccc(Br)cc3)c3cn([C@@H]4O[C@H](COC(C)=O)[C@@H](OC(C)=O)[C@H](OC(C)=O)[C@H]4OC(C)=O)c4ccc(Br)cc34)c3cc(Br)ccc32)[C@H](OC(C)=O)[C@@H](OC(C)=O)[C@@H]1OC(C)=O
QUALIFIER: =
ASSAY RESULT: 24
--
CHEMICAL STRUCTURE: O=[N+]([O-])c1ccc(C(c2cn([C@@H]3O[C@H](CO)[C@@H](O)[C@H](O)[C@H]3O)c3ccc(Br)cc23)c2cn([C@@H]3O[C@H](CO)[C@@H](O)[C@H](O)[C@H]3O)c3ccc(Br)cc23)cc1
QUALIFIER: =
ASSAY RESULT: 2.4
--
CHEMICAL STRUCTURE: N#Cc1ccc2[nH]cc(C(c3ccc(Cl)cc3)c3c[nH]c4ccc(C#N)cc34)c2c1
QUALIFIER: >
ASSAY RESULT: 100
--
CHEMICAL STRUCTURE: Clc1ccc(C(c2c[nH]c3ccc(Br)cc23)c2c[nH]c3ccc(Br)cc23)cc1
QUALIFIER: =
ASSAY RESULT: 8.5
--
CHEMICAL STRUCTURE: CCCCCCCC(c1cn([C@@H]2O[C@H](COC(C)=O)[C@@H](OC(C)=O)[C@H](OC(C)=O)[C@H]2OC(C)=O)c2ccc(Br)cc12)c1cn([C@@H]2O[C@H](COC(C)=O)[C@@H](OC(C)=O)[C@H](OC(C)=O)[C@H]2OC(C)=O)c2ccc(Br)cc12
QUALIFIER: =
ASSAY RESULT: 17
--
CHEMICAL STRUCTURE: O=[N+]([O-])c1ccc2[nH]cc(C(c3ccc(Cl)cc3)c3c[nH]c4ccc([N+](=O)[O-])cc34)c2c1
QUALIFIER: >
ASSAY RESULT: 100
--
CHEMICAL STRUCTURE: OC[C@H]1O[C@@H](n2cc(C(c3ccc(Br)cc3)c3cn([C@@H]4O[C@H](CO)[C@@H](O)[C@H](O)[C@H]4O)c4ccc(Br)cc34)c3cc(Br)ccc32)[C@H](O)[C@@H](O)[C@@H]1O
QUALIFIER: =
ASSAY RESULT: 2.5
--
CHEMICAL STRUCTURE: Brc1ccc2[nH]cc(C(c3ccc4ccccc4c3)c3c[nH]c4ccc(Br)cc34)c2c1
QUALIFIER: =
ASSAY RESULT: 8.5
--
CHEMICAL STRUCTURE: CCCCCCCC(c1c[nH]c2ccc([N+](=O)[O-])cc12)c1c[nH]c2ccc([N+](=O)[O-])cc12
QUALIFIER: =
ASSAY RESULT: 12.5
--
CHEMICAL STRUCTURE: CC(=O)OC[C@H]1O[C@@H](n2cc(C(c3ccc(Cl)cc3)c3cn([C@@H]4O[C@H](COC(C)=O)[C@@H](OC(C)=O)[C@H](OC(C)=O)[C@H]4OC(C)=O)c4ccc(Br)cc34)c3cc(Br)ccc32)[C@H](OC(C)=O)[C@@H](OC(C)=O)[C@@H]1OC(C)=O
QUALIFIER: =
ASSAY RESULT: 24
--
CHEMICAL STRUCTURE: Oc1cccc(C(c2c[nH]c3ccc(Br)cc23)c2c[nH]c3ccc(Br)cc23)c1
QUALIFIER: =
ASSAY RESULT: 8
--
CHEMICAL STRUCTURE: O=[N+]([O-])c1ccc(C(c2c[nH]c3ccc([N+](=O)[O-])cc23)c2c[nH]c3ccc([N+](=O)[O-])cc23)cc1
QUALIFIER: >
ASSAY RESULT: 100
--
CHEMICAL STRUCTURE: CC(=O)OC[C@H]1O[C@@H](n2cc(C(c3ccc([N+](=O)[O-])cc3)c3cn([C@@H]4O[C@H](COC(C)=O)[C@@H](OC(C)=O)[C@H](OC(C)=O)[C@H]4OC(C)=O)c4ccc(Br)cc34)c3cc(Br)ccc32)[C@H](OC(C)=O)[C@@H](OC(C)=O)[C@@H]1OC(C)=O
QUALIFIER: =
ASSAY RESULT: 8
--
CHEMICAL STRUCTURE: CCCCCCCC(c1c[nH]c2ccc(C#N)cc12)c1c[nH]c2ccc(C#N)cc12
QUALIFIER: =
ASSAY RESULT: 26
--
CHEMICAL STRUCTURE: CN(C)c1ccc(C(c2c[nH]c3ccc(Br)cc23)c2c[nH]c3ccc(Br)cc23)cc1
QUALIFIER: =
ASSAY RESULT: 25
--
CHEMICAL STRUCTURE: Brc1ccc2[nH]cc(C(c3ccccc3)c3c[nH]c4ccc(Br)cc34)c2c1
QUALIFIER: =
ASSAY RESULT: 7.5
--
CHEMICAL STRUCTURE: COc1ccc(OC)c(C(c2c[nH]c3ccc(Br)cc23)c2c[nH]c3ccc(Br)cc23)c1
QUALIFIER: =
ASSAY RESULT: 10
--
CHEMICAL STRUCTURE: CCCCCCCC(c1c[nH]c2ccc(Br)cc12)c1c[nH]c2ccc(Br)cc12
QUALIFIER: =
ASSAY RESULT: 3.5
